SYSTEM: 5-hydroxytryptamine receptor 6 (Homo sapiens)
Sequence (P50406 whole entry): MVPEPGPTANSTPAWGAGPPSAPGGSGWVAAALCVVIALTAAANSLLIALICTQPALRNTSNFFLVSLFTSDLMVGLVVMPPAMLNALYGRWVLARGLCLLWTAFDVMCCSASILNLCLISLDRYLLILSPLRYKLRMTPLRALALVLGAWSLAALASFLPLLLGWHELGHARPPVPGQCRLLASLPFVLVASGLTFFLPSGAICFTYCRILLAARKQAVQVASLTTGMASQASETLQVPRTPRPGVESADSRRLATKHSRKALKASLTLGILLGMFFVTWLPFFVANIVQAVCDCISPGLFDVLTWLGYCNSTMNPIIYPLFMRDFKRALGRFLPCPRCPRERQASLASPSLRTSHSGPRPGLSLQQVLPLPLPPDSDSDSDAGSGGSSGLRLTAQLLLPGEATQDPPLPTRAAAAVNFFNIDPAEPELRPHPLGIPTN
MEASUREMENT_DESCRIPTION: Antagonist activity at human 5-HT6 receptor expressed in human HeLa cells assessed as inhibition of 5-HT-induced cAMP accumulation pretreated for 10 mins before 5-HT addition measured after 30 mins
PROPERTY_NAME: IC50 (µM)

# count of solved cases: 3
COc1ccc(N2CCc3c(NS(=O)(=O)c4cccc(OC)c4)n[nH]c3C2=O)cc1 | 7.08
COc1cccc(S(=O)(=O)Nc2n[nH]c3c2CCN(c2ccc(C)cc2)C3=O)c1 | 6.77
Cc1ccc(N2CCc3c(NS(=O)(=O)c4cccc(C(F)(F)F)c4)n[nH]c3C2=O)cc1 | 3.28

A. COc1ccc(N2CCc3c(NS(=O)(=O)c4cccc(F)c4)n[nH]c3C2=O)cc1
B. Cc1ccc(N2CCc3c(NS(=O)(=O)c4ccc(F)cc4)n[nH]c3C2=O)cc1
IN: # returns the entry with the larger IC50; inputs A and B Lab note: record the label of whichever item you select.
OUT: B
(B: 5.22 µM, A: 0.58 µM)

###

SYSTEM: CYP2C19 (Homo sapiens, UniProt P33261)
Sequence (P33261 whole entry): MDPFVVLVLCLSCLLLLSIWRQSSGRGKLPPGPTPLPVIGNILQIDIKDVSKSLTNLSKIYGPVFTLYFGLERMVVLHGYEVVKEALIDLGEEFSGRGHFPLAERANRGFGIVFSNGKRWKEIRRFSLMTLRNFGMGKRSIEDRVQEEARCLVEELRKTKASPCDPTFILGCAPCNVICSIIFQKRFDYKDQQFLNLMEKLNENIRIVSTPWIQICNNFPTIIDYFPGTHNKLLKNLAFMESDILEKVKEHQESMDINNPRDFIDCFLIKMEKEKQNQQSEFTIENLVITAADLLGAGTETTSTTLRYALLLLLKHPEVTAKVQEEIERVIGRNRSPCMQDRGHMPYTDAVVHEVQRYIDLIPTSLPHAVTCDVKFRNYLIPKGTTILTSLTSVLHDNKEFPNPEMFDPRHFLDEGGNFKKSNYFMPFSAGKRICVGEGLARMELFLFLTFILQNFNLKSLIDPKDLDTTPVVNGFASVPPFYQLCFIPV
MEASUREMENT_DESCRIPTION: Inhibition of human CYP2C19 assessed as residual activity using miconazole as […] at 10 uM relative to control
Format: ADME
CONDITION_INFO: probe miconazole, read-out: Activity
PROPERTY_NAME: activity at 10 µM (%)

O=C1c2[nH]nc(NS(=O)(=O)c3cccc4ccccc34)c2CCN1CC1CCNCC1 | 104
COc1ccc(N2CCc3c(NS(=O)(=O)c4cccc(F)c4)n[nH]c3C2=O)cc1 | 81.8
O=C1c2[nH]nc(NS(=O)(=O)c3cccc4ccccc34)c2CCN1C1CCNCC1 | 99.8

###

SYSTEM: CYP2C9 (Homo sapiens, UniProt P11712)
Sequence (P11712 whole entry): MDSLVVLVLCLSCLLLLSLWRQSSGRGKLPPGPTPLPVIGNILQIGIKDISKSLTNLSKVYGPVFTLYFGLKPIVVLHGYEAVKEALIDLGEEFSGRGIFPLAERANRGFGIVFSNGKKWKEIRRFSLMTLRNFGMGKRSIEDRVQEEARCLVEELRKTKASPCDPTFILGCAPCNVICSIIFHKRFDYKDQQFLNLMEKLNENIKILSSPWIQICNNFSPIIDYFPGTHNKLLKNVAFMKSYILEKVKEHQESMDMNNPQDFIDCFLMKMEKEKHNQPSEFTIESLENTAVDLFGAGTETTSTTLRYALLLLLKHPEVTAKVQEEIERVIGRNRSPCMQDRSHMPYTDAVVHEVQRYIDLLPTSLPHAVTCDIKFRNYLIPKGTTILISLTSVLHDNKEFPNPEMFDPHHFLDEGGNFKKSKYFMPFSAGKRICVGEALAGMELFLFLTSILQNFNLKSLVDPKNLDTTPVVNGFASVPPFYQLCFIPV
MEASUREMENT_DESCRIPTION: Inhibition of human CYP2C9 assessed as residual activity using sulfaphenazol as […] at 10 uM relative to control
Format: ADME
CONDITION_INFO: read-out: Activity
PROPERTY_NAME: activity at 10 µM (%)

O=C1c2[nH]nc(NS(=O)(=O)c3cccc4ccccc34)c2CCN1C1CCNCC1 | 94.5
COc1ccc(N2CCc3c(NS(=O)(=O)c4cccc(F)c4)n[nH]c3C2=O)cc1 | 78.6
O=C1c2[nH]nc(NS(=O)(=O)c3cccc4ccccc34)c2CCN1CC1CCNCC1 | 98.4

###

SYSTEM: 5-hydroxytryptamine receptor 6 (Homo sapiens)
MEASUREMENT_DESCRIPTION: Antagonist activity at human 5-HT6 receptor expressed in human HeLa cells assessed as inhibition of 5-HT-induced cAMP accumulation pretreated for 10 mins before 5-HT addition measured after 30 mins
pIC50: −log10 of the molar value.
PROPERTY_NAME: pIC50

P. O=C1c2[nH]nc(NS(=O)(=O)c3cccc4ccccc34)c2CCN1CC1CCNCC1
Q. O=C1c2[nH]nc(NS(=O)(=O)c3cccc4ccccc34)c2CCN1C1CCNCC1
R. Cc1ccc(N2CCc3c(NS(=O)(=O)c4cccc(Cl)c4C)n[nH]c3C2=O)cc1
IN: Place the item with the largest pIC50 first, then continue in falling order, using the list above. In plain terms: list the labels in the order you were asked to.
OUT: P, Q, R
(P: 6.51, Q: 6.11, R: 5.78)

###

SYSTEM: CYP3A4 (Homo sapiens)
Sequence (P08684 whole entry): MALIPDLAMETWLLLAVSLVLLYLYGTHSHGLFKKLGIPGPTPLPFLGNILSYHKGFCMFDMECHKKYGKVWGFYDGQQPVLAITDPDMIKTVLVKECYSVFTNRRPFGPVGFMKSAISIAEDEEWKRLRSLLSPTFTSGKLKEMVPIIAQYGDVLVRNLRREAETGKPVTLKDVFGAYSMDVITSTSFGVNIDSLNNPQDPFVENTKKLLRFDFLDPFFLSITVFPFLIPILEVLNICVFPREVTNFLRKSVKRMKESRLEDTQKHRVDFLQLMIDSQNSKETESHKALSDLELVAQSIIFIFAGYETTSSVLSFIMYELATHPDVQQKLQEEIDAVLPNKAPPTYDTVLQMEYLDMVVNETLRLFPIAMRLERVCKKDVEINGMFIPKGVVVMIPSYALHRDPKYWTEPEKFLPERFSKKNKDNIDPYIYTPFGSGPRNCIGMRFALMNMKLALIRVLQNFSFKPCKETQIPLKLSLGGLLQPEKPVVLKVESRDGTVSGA
MEASUREMENT_DESCRIPTION: Inhibition of human CYP3A4 assessed as residual activity using ketoconazole as […] at 10 uM relative to control
Assay type: ADME
CONDITION_INFO: probe ketoconazole, read-out: Activity
PROPERTY_NAME: activity at 10 µM (%)

O=C1c2[nH]nc(NS(=O)(=O)c3cccc4ccccc34)c2CCN1C1CCNCC1 | 16.7
O=C1c2[nH]nc(NS(=O)(=O)c3cccc4ccccc34)c2CCN1CC1CCNCC1 | 17.8
COc1ccc(N2CCc3c(NS(=O)(=O)c4cccc(F)c4)n[nH]c3C2=O)cc1 | 19.5

###

MEASUREMENT_DESCRIPTION: Metabolic stability in human liver microsomes assessed as compound remaining after 30 mins
Format: ADME, Microsome
CONDITION_INFO: read-out: Stability
PROPERTY_NAME: remaining at 0.5 h (%)

COc1ccc(N2CCc3c(NS(=O)(=O)c4cccc(F)c4)n[nH]c3C2=O)cc1 | 96.3
O=C1c2[nH]nc(NS(=O)(=O)c3cccc4ccccc34)c2CCN1CC1CCNCC1 | 90.8
O=C1c2[nH]nc(NS(=O)(=O)c3cccc4ccccc34)c2CCN1C1CCNCC1 | 101

Entry source: ChEMBL document CHEMBL2406983
